Reference source for all entries: ChEMBL document CHEMBL4387763

- Method Summary: Stability in human liver microsomes assessed as parent compound remaining after 30 mins
- Format: ADME, Microsome
- Experimental Conditions: read-out: Stability
Measured Parameter: remaining at 0.5 h (%)
A number alone suffices; assume %.

Req: Query (compound): `Cc1cc(C(=O)N[C@H](Cc2ccccc2)C(=O)O)sc1S(=O)(=O)Nc1cc(C(F)(F)F)ccc1Cl` ; field requested: remaining at 0.5 h
Resp: 66

Req: I would be grateful if you could share the reported remaining at 0.5 h for `Cc1cc(C(=O)N[C@H](Cc2ccccc2)C(=O)NS(C)(=O)=O)sc1S(=O)(=O)Nc1cc(C(F)(F)F)ccc1Cl` .
Resp: 99

Req: For the compound `Cc1cc(C(=O)N[C@H](Cc2ccccc2)C(=O)NS(=O)(=O)c2ccccc2)sc1S(=O)(=O)Nc1cc(C(F)(F)F)ccc1Cl` , what remaining at 0.5 h is on record?
Resp: 74

Req: Would you kindly share the measured remaining at 0.5 h for `Cc1cc(C(=O)N[C@H](Cc2c[nH]c3ccccc23)C(=O)O)sc1S(=O)(=O)Nc1cc(C(F)(F)F)ccc1Cl` ?
Resp: 98
